Listing: TGI of selected compounds
Test system: OVCAR-8 ovarian
Assay: NCI tumour cell line growth inhibition, 48 h

// worked examples, TGI included
* CN(c1ccc(NC(=O)NCCN2CCOCC2)cc1)c1ccnc(Nc2ccc(CS(C)(=O)=O)cc2)n1 | > 25 µM
* Cc1cc(C)c(S(=O)(=O)N(CCCN)OCCCN)c(C)c1 | > 100 µM

[in] Give recorded TGI. COC(=O)c1ccccc1/C=C1\Cc2ccc3ccccc3c2C1C (stereo unspecified)
[out] > 100 µM

[in] Give recorded TGI. N#Cc1cccc(C2C3=C(COC3=O)N(CCO)c3cc4c(cc32)CCC4)c1 (stereo unspecified)
[out] > 50 µM

[in] Give recorded TGI. NCC(Cc1ccccc1)P(=O)(O)O (stereo unspecified)
[out] > 100 µM

[in] Give recorded TGI. `CO/C(=N\N=C(/c1ccccc1)C(F)(F)F)c1ccncc1`
[out] > 100 µM

[in] Give recorded TGI. `O=[N+]([O-])c1ccc(/C=C\c2ccc3c(c2)OCO3)c([N+](=O)[O-])c1`
[out] 45.5 µM

[in] Give recorded TGI. `OC1CSCCSCCCSCCSC1`
[out] > 100 µM

[in] Give recorded TGI. `C/C(CC(=O)Nc1cccc(Cl)c1C)=N\N=C(N)N`
[out] > 100 µM

[in] Give recorded TGI. `CC(C)=NNc1ncnc2nc[nH]c12`
[out] > 100 µM

[in] Give recorded TGI. CC1CCC2c3c([nH]c4ccccc34)C3C(=O)N(c4ccccc4)C(=O)C3C2C1 (stereo unspecified)
[out] > 250 µM
